organism: Mus musculus; assay: Antagonistic activity against 5-HTP induced potentiation in mice; assay type: functional
Under this convention, 1 denotes ED50 strictly below 30 µmol/kg and -1 denotes ED50 at or above 30 µmol/kg.

molecule | classification
CNC1CC(c2ccc(Cl)c(Cl)c2)c2ccc(O)cc21 (stereo in doubt; 54) | -1
CN(C)C1CC(c2ccc(F)cc2)c2ccc(C(F)(F)F)cc21 (stereo in doubt; 82) | -1
CN(C)C1CC(c2ccc(F)cc2)c2ccccc21 (stereo in doubt; 61) | 1
CCCNC1CC(c2ccc(Cl)c(Cl)c2)c2ccccc21 (stereo in doubt; 87) | -1
CNC1CC(c2ccc(F)cc2)c2ccccc21 (stereo in doubt; 32) | -1
CN1CCN(C2CC(c3ccc(Cl)c(Cl)c3)c3ccccc32)CC1 (stereo in doubt; 102) | -1
CCNC1CC(c2ccc(Cl)c(Cl)c2)c2ccccc21 (stereo in doubt; 84) | 1
CN(C)C1CC(c2ccc(Cl)c(Cl)c2)c2ccc(F)cc21 (stereo in doubt; 51) | 1
Clc1ccc(C2CC(N3CCCC3)c3ccccc32)cc1Cl (stereo in doubt; 98) | -1
